Taken from patent US20180237497A1.

Examples of binders with documented Kd follow.
# tested system: T1, human IGF2^1-67 (mature insulin-like growth factor 2) (human, UniProt P01344 25-91, biotinylated (site not stated) where immobilised on the chip (Tables 1-4))
# T1 construct: mature; also called mature IGF2; biotinylated IGF2
# T1 sequence (P01344 25-91): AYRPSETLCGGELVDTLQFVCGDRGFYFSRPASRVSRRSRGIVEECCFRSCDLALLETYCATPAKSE
# assay explanation: SPR steady state, biotin-IGF2 on chip
observed property: Kd (nM)

>>> val("domain 11^AB5 + 51F (HI-NRQS) (receptor, See m5; Protein quality poor) MKSNEHDDCQVTNPSTGHLFDLSSLSGRAGFTAAYAKGWGVYMSICGENENCPPGVGACFGQTRISVGKANKRLRYVDQVLQLVYKDGSPCPSKSGLSYKSVISFVCRPEAGPTNRPMLISLNRQSCTLFFSWHTPLACEQATECSV")
6.94
>>> val("domain 11^WT + 27G (HI-NMAL) (receptor, See m5; Protein quality poor) MKSNEHDDCQVTNPSTGHLFDLSSLSGRAGFTAAYSEKGLVYMSICGENENCPPGVGACFGQTRISVGKANKRLRYVDQVLQLVYKDGSPCPSKSGLSYKSVISFVCRPEAGPTNRPMLISLNMALCTLFFSWHTPLACEQATECSV")
194
